target: GalNAc(b1-4)GlcNAc; assay: glycan array binding signal (z-score within array); higher = stronger binding; conditions: glycan notation: IUPAC condensed, linker removed
About 410 targets per protein were measured; listed, in parts, are those with the strongest signals and a random draw of the rest.
measure.name: glycan array binding signal (z-score)
Please reply with the value in numeric form only.

Prompt: For AT3G44510(29) (Arabidopsis thaliana), F4J341 (protein) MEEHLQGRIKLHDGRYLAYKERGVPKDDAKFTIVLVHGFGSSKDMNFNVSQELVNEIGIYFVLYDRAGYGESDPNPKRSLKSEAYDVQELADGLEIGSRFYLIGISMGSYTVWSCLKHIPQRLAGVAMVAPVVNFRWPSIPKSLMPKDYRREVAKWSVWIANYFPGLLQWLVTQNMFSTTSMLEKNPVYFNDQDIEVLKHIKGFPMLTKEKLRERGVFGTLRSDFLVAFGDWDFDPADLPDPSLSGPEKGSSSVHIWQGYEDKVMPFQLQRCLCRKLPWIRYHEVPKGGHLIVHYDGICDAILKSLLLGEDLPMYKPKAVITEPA , what is its reported glycan array binding signal (z-score)?
Completion: 9.27

// data source = the supplement of paper PMC8728848
